All values here come from patent US6603046B1.

The compounds listed here are annotated with their Weight gain in 14 days after initiation of treatment.
Test system: Eimeria tenella
EXPERIMENT_SUMMARY: Anticoccidial activity in chickens infected with Eimeria tenella (Example 28)
Assay type: in vivo
ASSAY_CONTEXT: in feed: salinomycin 70 ppm; 2,5 m4′ac and 2,4 mc 30 mg/kg/day; licochalcone A 10 mg/kg/day
Marks after values point to notes of the source that are not given here.

Known results for compounds:
C=CC(C)(C)c1cc(/C=C/C(=O)c2ccc(O)cc2)c(OC)cc1O [Licochalcone A, licochalcone A] :: 864^b grams per chicken
CC[C@@H](C(=O)[C@@H](C)[C@@H](O)[C@H](C)[C@@H]1O[C@@H]([C@@H](CC)C(=O)O)CC[C@@H]1C)[C@H]1O[C@]2(C=C[C@@H](O)[C@]3(CC[C@@](C)([C@H]4CC[C@](O)(CC)[C@H](C)O4)O3)O2)[C@H](C)C[C@@H]1C [salinomycin, reference compound] :: 900^a grams per chicken
COc1ccc(/C=C/C(=O)c2ccccc2)c(OC)c1 [2,4mc, 2,4-dimethoxychalcone] :: 803^ grams per chicken

Would you kindly look at the next entry?
Per the records, this compound ( C=CCOc1ccc(C(=O)/C=C/c2cc(OC)ccc2OC)cc1 [2,5-Dimethoxy-4′-allyloxychalcone, 2,5-dimethoxy-4′-prop-2enyloxychalcone] ) has Weight gain in 14 days after initiation of treatment equal to 804^ grams per chicken

----------
EXPERIMENT_SUMMARY: Plasma concentration and half live in mice after i.p. injection, HPLC (Example 25)
Type: in vivo
ASSAY_CONTEXT: mouse, plasma, intraperitoneal; 10 mg/kg i.p.; after 30 min
OBSERVATION_TYPE: concentration at 30 min (ng/mL)
Give the value, in units of ng/mL, as a plain number.

Sample C=CC(C)(C)c1cc(/C=C/C(=O)c2ccc(O)cc2)c(OC)cc1O ; concentration at 30 min observed: 280

----------
EXPERIMENT_SUMMARY: Plasma concentration and half live in mice after i.p. injection, HPLC (Example 25)
Format: in vivo
ASSAY_CONTEXT: mouse, plasma, intraperitoneal; 10 mg/kg i.p.; after 60 min
OBSERVATION_TYPE: concentration at 60 min
Express the reported value numerically, then name its unit.

Measured concentration at 60 min, C=CC(C)(C)c1cc(/C=C/C(=O)c2ccc(O)cc2)c(OC)cc1O : 140 ng/mL

----------
System: Eimeria tenella
EXPERIMENT_SUMMARY: Anticoccidial activity in chickens infected with Eimeria tenella (Example 28)
Type: in vivo
ASSAY_CONTEXT: in feed: salinomycin 70 ppm; 2,5 m4′ac and 2,4 mc 30 mg/kg/day; licochalcone A 10 mg/kg/day
OBSERVATION_TYPE: Weight gain in 7 days after initiation of treatment (grams per chicken)
Expressed in grams per chicken, but write only the number.

CC[C@@H](C(=O)[C@@H](C)[C@@H](O)[C@H](C)[C@@H]1O[C@@H]([C@@H](CC)C(=O)O)CC[C@@H]1C)[C@H]1O[C@]2(C=C[C@@H](O)[C@]3(CC[C@@](C)([C@H]4CC[C@](O)(CC)[C@H](C)O4)O3)O2)[C@H](C)C[C@@H]1C [salinomycin, reference compound] :: 425

// Weight gain in 7 days after initiation of treatment lookup, compound = COc1ccc(/C=C/C(=O)c2ccccc2)c(OC)c1 , result: 380

Noted for C=CCOc1ccc(C(=O)/C=C/c2cc(OC)ccc2OC)cc1 : its Weight gain in 7 days after initiation of treatment reads 366

Kindly note the recorded Weight gain in 7 days after initiation of treatment for C=CC(C)(C)c1cc(/C=C/C(=O)c2ccc(O)cc2)c(OC)cc1O , which is 414
